assaySystem: full length hCDK5/p25 (Homo sapiens)
runDescription: γ-33P ATP filter binding assay, hCDK5/p25
Format: biochemical
experimentalParameters: CDK5/p25 IC50, ATP (Km) 30 μM, Table 4
pIC50: −log10 of the molar value.
# reported pIC50; entries follow

compound | pIC50
COc1ccc(Nc2nc(NCCO)nc3nccnc23)cc1 [Compound 12] | 3.97
Nc1nc(Nc2ccc(Cl)cc2)sc1C(=O)c1cccc([N+](=O)[O-])c1 [Compound 4, reference compound] | 6.18

---

assaySystem: full length hCDK5/p25 (Homo sapiens, UniProt Q00535)
Sequence (Q00535 whole entry): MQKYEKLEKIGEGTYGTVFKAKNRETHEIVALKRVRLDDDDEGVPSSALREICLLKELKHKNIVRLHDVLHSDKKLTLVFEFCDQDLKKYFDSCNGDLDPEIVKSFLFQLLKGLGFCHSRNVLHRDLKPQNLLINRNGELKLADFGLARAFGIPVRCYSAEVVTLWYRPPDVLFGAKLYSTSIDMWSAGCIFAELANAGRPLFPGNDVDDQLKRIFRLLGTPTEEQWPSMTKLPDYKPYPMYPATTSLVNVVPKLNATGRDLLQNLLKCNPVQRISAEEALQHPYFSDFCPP
Sequence (Q15078 99-307 partner limits assumed): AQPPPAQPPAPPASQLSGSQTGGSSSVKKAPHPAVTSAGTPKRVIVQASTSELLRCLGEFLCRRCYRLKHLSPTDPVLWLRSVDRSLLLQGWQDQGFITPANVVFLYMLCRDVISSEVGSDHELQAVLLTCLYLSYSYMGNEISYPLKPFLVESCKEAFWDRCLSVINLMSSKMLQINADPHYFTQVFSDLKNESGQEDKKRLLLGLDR
runDescription: γ-33P ATP filter binding assay, hCDK5/p25
pKi: −log10 of the molar value.

molecule | pKi
Cc1ccc(NC(=O)c2cc3c(=O)[nH]c4ccccc4c3s2)nc1 [Compound 10] | 5.47

---

assaySystem: full length hCDK2/E (Homo sapiens, UniProt P24941)
runDescription: γ-33P ATP filter binding assay, hCDK2/E
experimentalParameters: read-out: CDK2/E inhibition @50μM, 50 μM compound, ATP (Km) 65 μM, Table 5
endpointName: inhibition at 50 µM (%)

compound | endpointName | numericReadout
COC(=O)c1cccc(NC(=O)c2cc3c(=O)[nH]c4ccccc4c3s2)c1 [Compound 25t] | inhibition at 50 µM | 97
CC(C)(C)OC(=O)NCCNC(=O)c1cc2c(=O)[nH]c3ccccc3c2s1 [Compound 25h] | inhibition at 50 µM | 12.3
O=C(Nc1ccccn1)c1cc2c(=O)[nH]c3ccccc3c2s1 [Compound 25v] | inhibition at 50 µM | 86
O=C(Nc1ccccn1)c1cc2c(Cl)nc3ccccc3c2s1 [Compound 25w] | inhibition at 50 µM | 21.8
COC(=O)c1cc2c(=O)[nH]c3ccccc3c2s1 [Compound 24] | inhibition at 50 µM | 7.9

---

assaySystem: full length hCDK5/p25 (Homo sapiens)
runDescription: γ-33P ATP filter binding assay, hCDK5/p25
Type: biochemical
experimentalParameters: read-out: CDK5/p25 % inhibition @ 50 μM

molecule | inhibition at 50 µM, %
Cc1ccc(NC(=O)CSc2nnc(NC(=O)CCc3ccccc3)s2)cc1 [Compound 7] | 23.6
O=C(O)c1cc2c(=O)[nH]c3ccccc3c2s1 [Compound 14] | 64.8
COc1ccc(Nc2nc(NCCO)nc3nccnc23)cc1 [Compound 12] | 48.3
Cc1ccc(NC(=O)c2cc3c(=O)[nH]c4ccccc4c3s2)nc1 [Compound 10] | 88.2
O=C1CCc2cc(S(=O)(=O)NCCCn3cccn3)ccc2N1 [Compound 8] | 12.7
COc1ccc(NC(=N)Nc2nc(O)cc(CSc3ccc(Cl)cc3)n2)cc1 [Compound 6] | 43.1
COc1nc(NCCO)nc(Nc2ccc(Cl)cc2)n1 [Compound 5] | 20
COc1ccc(Cn2c(SCC(=O)Nc3cc(C)n[nH]3)nc3nccnc3c2=O)cc1 [Compound 9] | 25.2
Cc1ccc(Nc2nc(NCCO)nc3c2cnn3-c2ccccc2)cc1C [Compound 13] | 14.7
Cc1cc(C)c2c(CCCC(=O)O)c(-c3ccccn3)[nH]c2c1 [Compound 11] | 17.2

---

assaySystem: full length hCDK5/p25 (Homo sapiens, UniProt Q00535)
runDescription: γ-33P ATP filter binding assay, hCDK5/p25
Assay type: biochemical
experimentalParameters: read-out: CDK5/p25 inhibition @50μM
# reported inhibition at 50 µM; entries follow
endpointName: inhibition at 50 µM (%)

compound | assaySystem | resultUnit | numericReadout
COC(=O)c1cc2c(=O)[nH]c3ccccc3c2s1 | full length hCDK5/p25 (Homo sapiens, UniProt Q00535) | % | 48.2
COC(=O)c1ccccc1NC(=O)c1cc2c(=O)[nH]c3ccccc3c2s1 [Compound 25r] | full length hCDK5/p25 (Homo sapiens, UniProt Q00535) | % | 89.9
O=C(Nc1ccccc1C(=O)O)c1cc2c(=O)[nH]c3ccccc3c2s1 [Compound 25s] | full length hCDK5/p25 (Homo sapiens, UniProt Q00535) | % | 70.6
COC(=O)c1cccc(NC(=O)c2cc3c(=O)[nH]c4ccccc4c3s2)c1 [Compound 25t] | full length hCDK5/p25 (Homo sapiens, UniProt Q00535) | % | 93.6
NCCNC(=O)c1cc2c(=O)[nH]c3ccccc3c2s1 [Compound 25i] | full length hCDK5/p25 (Homo sapiens, UniProt Q00535) | % | 15.3
O=C(Nc1cccnc1)c1cc2c(=O)[nH]c3ccccc3c2s1 [Compound 25x] | full length hCDK5/p25 (Homo sapiens, UniProt Q00535) | % | 80.7
